In what follows, each item is paired with its IC50 for FGFR3 (Homo sapiens (Human), UniProt P22607).

Take a look at these entries with their results.
1. COc1cc(OC)c(F)c(N2Cc3cnc(N[C@H]4CCOC4)cc3C3(CC3)C2=O)c1F | < 100 nM
2. COc1cc(OC)c(F)c(N2Cc3cnc(N)c(C#N)c3N(c3ccccc3F)C2=O)c1F | < 100 nM
3. COc1cc(OC)c(F)c(N2Cc3cnc(N)c(CCc4ccccc4)c3N(C)C2=O)c1F | < 100 nM
4. COc1cc(OC)c(F)c(N2Cc3cnc(N[C@H](C)c4ccccc4)cc3C3(CC3)C2=O)c1F | < 100 nM
5. COc1cc(OC)c(F)c(N2Cc3cnc(N)c(-c4cccnc4)c3N(C)C2=O)c1F | < 100 nM
6. COc1cc(OC)c(F)c(N2Cc3cnc(N)c(Cl)c3N(C)C2=O)c1F | < 100 nM
7. COC(=O)Nc1cc2c(cn1)CN(c1c(F)c(OC)cc(OC)c1F)C(=O)C21CC1 | < 100 nM

For the next question, use this molecule.
Using known records, supply IC50 for COc1cc(OC)c(F)c(N2Cc3cnc(NCc4cnn(C)c4)cc3C3(CC3)C2=O)c1F < 100 nM
